Hey, just so you know, these numbers are from ChEMBL document CHEMBL3433997.

# SUBJECT OF TEST: Solute carrier family 2, facilitated glucose transporter member 1 (Homo sapiens)
# MEASUREMENT DESCRIPTION: ST_JUDE_LEISH: Cytotoxicity at 2uM final concentration against transgenic Leishmania Mexicana promastigotes LmGLUT1 that are glucose transport deficient and complemented with the human glucose transporter GLUT1. Activity is measured by DNA content using SYBR green in vitro
# Assay type: functional
compounds and their reported inhibition
Reply numerically in %, unit not repeated.

Take a look at these entries with their results.
{"columns": ["COMPOUND", "inhibition, %"],
 "data": [
  ["CCOc1cc(C(=O)NCCN2CCCCC2)ccc1-c1nc2cc(Cl)ccc2[nH]1", 1.06],
  ["O=c1c(NCCCN(Cc2ccc(F)cc2)c2ccccn2)c(NCc2cccnc2)c1=O", 1.33],
  ["COc1ccc2ncc(F)c([C@H](O)CN3CCC(NCc4cc5c(cn4)OCCO5)CC3)c2c1", 6.21],
  ["O=C(/C=C/c1ccc(Cl)c(Cl)c1)N1CCC(CNCc2cccc3cc[nH]c23)CC1", 1.64]
]}

// switching to the query compound
Could you please provide reported inhibition for NC1CCCN(Cc2cccc(-c3ccc(-c4nc5cc(F)ccc5[nH]4)cc3)c2)C1 (stereo not given) ? Thanks! 3.55

###

molecules and their reported inhibition
# SUBJECT OF TEST: Hexose transporter 1 (Plasmodium falciparum) (UniProt O97467)
# MEASUREMENT DESCRIPTION: ST_JUDE_LEISH: Cytotoxicity at 2uM final concentration against transgenic Leishmania Mexicana promastigotes LmPfHT that are glucose transport deficient and complemented with the Plasmodium falciparum hexose transporter. Activity is measured by DNA content using SYBR green in vitro
# Type: functional
Reply numerically in %, unit not repeated.

Take a look at these entries with their results.
{"columns": ["MOLECULE", "QUANTITY UNIT", "inhibition"],
 "data": [
  ["CCCc1cc(OC)c(CC2c3cc(O)c(Cl)cc3CCN2C)cc1OC (stereo not given)", "%", 7.17],
  ["CCCNC(=O)c1ccnc(-c2ccc(CNC3Cc4ccccc4C3)cc2)c1", "%", 1.35],
  ["COc1ccc2c(c1)CCCC2NCCCCNC(=O)c1ccc(NC(=O)c2ccc(Cl)cc2)cc1 (stereo not given)", "%", 0.37],
  ["c1ccc(-c2cccc(-c3ccccn3)n2)nc1", "%", 2.46],
  ["COCCN1CCC(N(CC2(O)CCN(c3ccc(C(F)(F)F)cc3)CC2)C(=O)Cn2c(SCc3cccc(F)c3F)cc(=O)c3ccccc32)CC1", "%", 0.65],
  ["Cc1ccc2c(=NN=Cc3cccc(Cl)c3)cc(C)[nH]c2c1", "%", 0.93]
]}

Could you please provide reported inhibition for `N=C(Nc1nc(-c2ccccn2)cc2ccccc12)c1cccc(Cl)c1` ? Thanks! 48.7

###

# SUBJECT OF TEST: Hexose transporter 1 (Plasmodium falciparum) (UniProt O97467)
# MEASUREMENT DESCRIPTION: ST_JUDE_LEISH: Cytotoxicity at 2uM final concentration against transgenic Leishmania Mexicana promastigotes LmPfHT that are glucose transport deficient and complemented with the Plasmodium falciparum hexose transporter. Activity is measured by DNA content using SYBR green in vitro
# Assay type: functional
QUANTITY MEASURED: inhibition (%)
Reply numerically in %, unit not repeated.

{"columns": ["COMPOUND", "QUANTITY UNIT", "inhibition"],
 "data": [
  ["Fc1ccc(Nc2ccnc3cc(-c4cccc(CN5CCCCC5)c4)ccc23)c(Cl)c1", "%", 3.95],
  ["COc1ccc(O)c(C(=O)c2cnc3c(c2)c(-c2ccc(F)cc2)c(C#N)c(=O)n3C)c1", "%", 6.89],
  ["COc1ccc(NC(=O)NC2CCN(c3ccnc4cc(Cl)ccc34)C2)cc1 (stereo not given)", "%", 2.85],
  ["O=S(=O)(Nc1ccc2nccc(N3CCNCC3)c2c1)c1ccc2c(Cl)cccc2c1", "%", -0.67]
]}

// switching to the query compound
Could you please provide reported inhibition for `Cn1nc(-c2cccc(CNCCc3cccs3)c2)c2cnc(NC3CCCC3)nc21` ? Thanks! 5.16

###

compounds and their reported inhibition
# SUBJECT OF TEST: Hexose transporter 1 (Plasmodium falciparum) (UniProt O97467)
# MEASUREMENT DESCRIPTION: ST_JUDE_LEISH: Cytotoxicity at 2uM final concentration against transgenic Leishmania Mexicana promastigotes LmPfHT that are glucose transport deficient and complemented with the Plasmodium falciparum hexose transporter. Activity is measured by DNA content using SYBR green in vitro
# Type: functional
Reply numerically in %, unit not repeated.

{"columns": ["COMPOUND", "inhibition (%)"],
 "data": [
  ["COc1cccc(C(=O)Nc2ccc(-c3nc4ccccc4[nH]3)cc2)c1", 1.76],
  ["O=[N+]([O-])c1ccc(Nc2nc(N/N=C/c3ccc(-c4ccc([N+](=O)[O-])cc4)o3)nc(Nc3ccccc3)n2)cc1", -3.33],
  ["COc1cc(CCNC(=N)/C=C/c2ccc(Cl)cc2)ccc1Cl", 2.01],
  ["CC(C)(C)c1cc(C(=O)N2CCN(c3nccnc3C#N)CC2)n(Cc2ccccc2)n1", 1.96],
  ["CCCCN(Cc1cnccc1-c1ccc(Br)cc1)c1ccc(C(O)(C(F)(F)F)C(F)(F)F)cc1", 3.75]
]}

// switching to the query compound
// fetch inhibition for `O=C1CCCN1CCCNCc1ccc(-c2cccc(-c3nc4ccccc4[nH]3)c2)cc1` ; system: Hexose transporter 1 (Plasmodium falciparum) (UniProt O97467) 3.74

###

# SUBJECT OF TEST: Solute carrier family 2, facilitated glucose transporter member 1 (Homo sapiens) (UniProt P11166)
# Sequence (P11166 whole entry): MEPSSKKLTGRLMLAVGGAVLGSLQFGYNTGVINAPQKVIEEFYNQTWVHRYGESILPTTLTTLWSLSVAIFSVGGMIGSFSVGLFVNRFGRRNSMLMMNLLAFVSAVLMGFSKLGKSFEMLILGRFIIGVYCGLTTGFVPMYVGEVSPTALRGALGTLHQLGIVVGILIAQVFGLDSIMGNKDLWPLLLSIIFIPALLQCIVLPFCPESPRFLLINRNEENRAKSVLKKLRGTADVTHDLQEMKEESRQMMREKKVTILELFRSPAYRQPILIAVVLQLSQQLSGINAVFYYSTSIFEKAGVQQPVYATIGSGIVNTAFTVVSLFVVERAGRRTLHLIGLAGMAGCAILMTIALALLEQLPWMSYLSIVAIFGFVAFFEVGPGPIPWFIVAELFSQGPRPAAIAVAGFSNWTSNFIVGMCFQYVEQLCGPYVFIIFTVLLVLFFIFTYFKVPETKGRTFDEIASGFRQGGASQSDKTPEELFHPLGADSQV
# MEASUREMENT DESCRIPTION: ST_JUDE_LEISH: Cytotoxicity at 2uM final concentration against transgenic Leishmania Mexicana promastigotes LmGLUT1 that are glucose transport deficient and complemented with the human glucose transporter GLUT1. Activity is measured by DNA content using SYBR green in vitro
# Assay type: functional
QUANTITY MEASURED: inhibition (%)
Reply numerically in %, unit not repeated.

Take a look at these entries with their results.
{"columns": ["COMPOUND", "QUANTITY UNIT", "OBSERVED VALUE"],
 "data": [
  ["N=C(/N=C(/NCCCCCCN/C(=N/C(=N)NCc1ccc(Cl)c(Cl)c1)N1CCCCC1)N1CCCCC1)NCc1ccc(Cl)c(Cl)c1", "%", 8.42],
  ["c1cc(CNCC2CCCO2)cc(-c2cccc(-c3nc4ccccc4[nH]3)c2)c1 (stereo not given)", "%", 1.58],
  ["CN(C)CCOc1cc(NC(=O)Nc2ccc(-c3ccccc3)cc2Cl)ccc1I", "%", 1.19],
  ["CC1C(c2cccc(Cl)c2)OCC(C)(C)N1C(=O)CCN1CCCCC1 (stereo not given)", "%", -1.47]
]}

Could you please provide reported inhibition for CCOc1ccc(C(=O)N2CCOC(CCN3CCC4(CCc5ccccc54)CC3)(c3ccc(Cl)c(Cl)c3)C2)cc1 (stereo not given) ? Thanks! 5.41

###

molecules and their reported inhibition
# SUBJECT OF TEST: Glucose transporter (Leishmania mexicana)
# MEASUREMENT DESCRIPTION: ST_JUDE_LEISH: Cytotoxicity at 2uM final concentration against transgenic Leishmania Mexicana promastigotes LmGT2 that are glucose transport deficient and complemented with the L. Mexicana glucose transporter 2. Activity is measured by DNA content using SYBR green in vitro
# Assay type: functional
Reply numerically in %, unit not repeated.

Could you please provide reported inhibition for `CCCCCCCCn1c2c(c(=N)c3c1CCC3)CCCC2` ? Thanks! 92.6

Could you please provide reported inhibition for Cc1cc(C)cc(OCC(O)CN(Cc2cc(Cl)cc(Cl)c2)C(=O)Nc2ccc([N+](=O)[O-])cc2)c1 (centres undefined) ? Thanks! 5.26

Could you please provide reported inhibition for CCN1CCC(N(Cc2ccc(-c3ccc(C(F)(F)F)cc3)cc2)C(=O)Cn2c(SCc3cccc(F)c3F)cc(=O)c3ccccc32)C1 (centres undefined) ? Thanks! -0.18

Could you please provide reported inhibition for CC1N=C(N)N=C(N)N1OCc1cccc2ccccc12 (centres undefined) ? Thanks! 1.84

Could you please provide reported inhibition for `O=c1nc(C=Cc2ccc(Br)cc2)oc2ccccc12` ? Thanks! 3.63

Could you please provide reported inhibition for `O=C(NC1CC1)c1cnc(N2CCC(Oc3ccc(Cl)cc3)CC2)c(Cl)c1` ? Thanks! 0.49

Could you please provide reported inhibition for `O=C(Nc1ccc(OC2CCN(Cc3ccc(F)cc3)CC2)c(Cl)c1)c1cccs1` ? Thanks! 8.58

Could you please provide reported inhibition for `COc1cc(F)c2ncc(Cl)c(CCN3CCC(NCc4ccc5c(n4)NC(=O)CS5)CC3)c2c1` ? Thanks! -2.08

Could you please provide reported inhibition for `Cc1ccc(C2CCN(CCCCNC(=O)c3ccc(NC(=O)c4ccc(Cl)cc4)cc3)CC2)c(C)c1` ? Thanks! -0.85

Could you please provide reported inhibition for `CN(C)CCCNc1ncnc2c1[nH]c1ccc(F)cc12` ? Thanks! 7.71

Could you please provide reported inhibition for `O=C(Nc1ccc(-c2ccc(CN3CCNCC3)cc2)cc1)c1cccc(Cl)c1` ? Thanks! 104

Could you please provide reported inhibition for `CC[C@H](C)CNC(=O)c1cncc(-c2ccc(CNCCOc3ccccc3)cc2)c1` ? Thanks! 1.09

Could you please provide reported inhibition for `Cc1ccc(NC(=O)c2ccc(CN3CCCN(CCC(C)C)CC3)cc2)cc1F` ? Thanks! 9.05

Could you please provide reported inhibition for COc1ccc(C2CC(c3cccs3)=NN2C(=O)CNc2ccccc2F)cc1OC (centres undefined) ? Thanks! 2.76
